- experimentalTarget: T1, TNFR1 (Homo sapiens, UniProt P19438)
- T1 chain: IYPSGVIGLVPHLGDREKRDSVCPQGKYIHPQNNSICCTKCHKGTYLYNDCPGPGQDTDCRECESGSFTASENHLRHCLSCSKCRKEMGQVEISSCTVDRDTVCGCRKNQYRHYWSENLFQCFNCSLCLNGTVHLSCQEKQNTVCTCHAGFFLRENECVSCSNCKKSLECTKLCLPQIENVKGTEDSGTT
- measurementProtocol: yeast display SC50
For each entry below, report its apparent Kd (screen) value.
Provide the reading as a plain figure in nM.

Fill in: apparent Kd (screen) of S51W (designed binder) MTLQELLREEALRRAEAEAFRYALELLAEKFPEQKEYLLDLAEEIESQIRWLSGVDVEDVRKFLDKEWAWVKELLAEHPAELAEVEAARAARLAELRAEVEAKVAA is ___
0.446

Fill in: apparent Kd (screen) of K35T (designed binder) MTLQELLREEALRRAEAEAFRYALELLAEKFPEQTEYLLDLAEEIESQIRSLSGVDVEDVRKFLDKEWAWVKELLAEHPAELAEVEAARAARLAELRAEVEAKVAA is ___
0.539

Fill in: apparent Kd (screen) of E77M (designed binder) MTLQELLREEALRRAEAEAFRYALELLAEKFPEQKEYLLDLAEEIESQIRSLSGVDVEDVRKFLDKEWAWVKELLAMHPAELAEVEAARAARLAELRAEVEAKVAA is ___
0.593

Fill in: apparent Kd (screen) of A98F (designed binder) MTLQELLREEALRRAEAEAFRYALELLAEKFPEQKEYLLDLAEEIESQIRSLSGVDVEDVRKFLDKEWAWVKELLAEHPAELAEVEAARAARLAELRFEVEAKVAA is ___
0.593
